target: D(2) dopamine receptor (Rattus norvegicus); assay: Compound was evaluated for binding affinity towards dopamine receptor D2 in striatal membranes, using [3H]- spiperone as radioligand in the presence of sodium chloride; format: cell membranes
compounds and their reported Ki
Answer with a number only, understood to be in nM.

# count of solved cases: 5
COMPOUND	U	Ki
CCN1CCC[C@H]1CNC(=O)c1cc(I)cc(OC)c1OC [EPIDEPRIDE]	nM	0.27
CCN1CCC[C@H]1CNC(=O)c1cc(CCCF)cc(OC)c1OC	nM	1.17
CCN1CCC[C@H]1CNC(=O)c1c(O)c(CCCF)cc(OC)c1OC	nM	0.25
CCN1CCC[C@H]1CNC(=O)c1cc(CCF)cc(OC)c1OC	nM	1.41
CCN1CCC[C@H]1CNC(=O)c1cc(Br)cc(OC)c1OC	nM	0.2

Could you tell me which Ki is on file for CCN1CCC[C@H]1CNC(=O)c1c(O)c(CCF)cc(OC)c1OC ?
0.24

====

target: D(2) dopamine receptor (Rattus norvegicus, UniProt P61169); assay: Displacement of [3H]- spiperone from dopamine receptor D2 of striatal membranes without sodium chloride
Sequence (P61169 whole entry): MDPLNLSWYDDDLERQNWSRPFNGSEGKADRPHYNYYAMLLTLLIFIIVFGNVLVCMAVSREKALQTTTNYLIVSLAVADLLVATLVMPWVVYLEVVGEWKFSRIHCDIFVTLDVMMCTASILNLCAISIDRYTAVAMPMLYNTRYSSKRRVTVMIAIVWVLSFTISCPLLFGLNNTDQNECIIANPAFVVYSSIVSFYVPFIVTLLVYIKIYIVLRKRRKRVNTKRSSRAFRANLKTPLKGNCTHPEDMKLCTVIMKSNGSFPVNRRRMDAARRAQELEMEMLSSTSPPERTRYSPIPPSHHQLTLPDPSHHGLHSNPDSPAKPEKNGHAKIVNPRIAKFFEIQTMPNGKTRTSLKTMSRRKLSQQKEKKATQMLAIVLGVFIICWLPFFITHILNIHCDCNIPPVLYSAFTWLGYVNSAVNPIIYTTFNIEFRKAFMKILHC
The entries below come with measured pKi values attached.
Note on pKi: it is the negative log10 of concentration, concentration in mol/L.

// known answers, use as guide
CCN1CCC[C@H]1CNC(=O)c1cc(CCCF)cc(OC)c1OC 8.36
CCN1CCC[C@H]1CNC(=O)c1c(O)c(CCF)cc(OC)c1OC 9.11
CCN1CCC[C@H]1CNC(=O)c1cc(Br)cc(OC)c1OC 9.12

Item under review: CCCc1cc(OC)c(OC)c(C(=O)NC[C@@H]2CCCN2CC)c1O . Reported pKi?
8.89

What do you have for CCN1CCC[C@H]1CNC(=O)c1c(O)c(CCCF)cc(OC)c1OC ?
9.10

Now consider CCCc1cc(OC)c(OC)c(C(=O)NC[C@@H]2CCCN2CC)c1 .
8.16

CCN1CCC[C@H]1CNC(=O)c1cccc(OC)c1OC , same question.
7.18

Entry CCN1CCC[C@H]1CNC(=O)c1cc(CCF)cc(OC)c1OC please
8.28
